Data provenance: ChEMBL document CHEMBL1121610

Assay: Therapeutic index was measured on P-388 leukemia cells.
Settings: mouse, read-out: Therapeutic index
The compounds listed here are annotated with their selectivity ratio.
The response must contain the number and no unit.

Answered examples (4):
Supply recorded selectivity ratio for CCC1(O)C(=O)OCc2c1cc1n(c2=O)Cc2cc3ccccc3nc2-1 (stereo not given) here.
8

Report selectivity ratio for CC[C@@]1(O)C(=O)OCc2c1cc1n(c2=O)Cc2cc3cc(OC)ccc3nc2-1
1

Check the records and state selectivity ratio for CC[C@@](O)(C(=O)[O-])c1cc2n(c(=O)c1CO)Cc1cc3ccccc3nc1-2.[Na+]
4

Read off the recorded selectivity ratio for COCCC1(O)C(=O)OCc2c1cc1n(c2=O)Cc2cc3ccccc3nc2-1 (stereo not given)
2

New cases:
// fetch selectivity ratio given entry CC[C@@]1(O)C(=O)OCc2c1cc1n(c2=O)Cc2cc3cc(O)ccc3nc2-1 [HYDROXYCAMPTOTHECIN]
8
